- Test system: HCC1954
- test: Viability assay, BRCA1 WT cell line HCC1954
- Assay type: cell-based
- assay-context: Homo sapiens, HCC1954, viability, read-out: HCC1954 rel IC50
- Description: Table 1 also indicates IC50 values in a viability assay for a non-isogenic pair of BRCA1 mutant (column 5-MDA-MB-436) and BRCA1 WT (column 6—HCC1954) cell lines. These values indicate the effect of treatment with compound on cell survival.
pIC50: −log10 of the molar value.
reported-endpoint: pIC50

| molecule | reported-endpoint | result |
| --- | --- | --- |
| Cn1cc(C(F)(F)F)nc1-c1ccc(Cn2c(=N)n(C)c3cnc(-c4c(Cl)cnn4C)nc32)cc1 | pIC50 | ≤ 5.00 |

Please look up its pIC50: CC(C)c1ccccc1-c1ncc2c(n1)n(Cc1ccc(-c3nc(C(F)(F)F)cn3C3CN(C)C3)cc1)c(=N)n2C ≤ 5.00

Same again, this time with CC(C)c1cc(C#N)ccc1-c1ncc2c(n1)n(Cc1ccc(-c3nc(C(F)(F)F)cn3C)cc1)c(=N)n2C 5.00 to 6.60

Then what about the molecule C=C(C)c1ccccc1-c1nc(C)c2c(n1)n(Cc1ccc(-c3nc(C(F)(F)F)cn3C)cc1)c(=N)n2C ? 5.00 to 6.60

Next molecule up: Cn1cc(C(F)(F)F)nc1-c1ccc(Cn2c(=N)n(C)c3cnc(-c4ccccc4C(F)(F)F)nc32)cn1 ≤ 5.00

How about COc1ncnc(C2CC2)c1-c1ncc2c(n1)n(Cc1ccc(-c3nc(C(F)(F)F)cn3C)cc1)c(=N)n2CC(F)(F)F ? ≤ 5.00

And then Cn1cc(C(F)(F)F)nc1-c1ccc(Cn2c(=N)n(C)c3cnc(-c4cc(F)ccc4OC(F)F)nc32)cc1 , what is it? ≤ 5.00

Try the molecule Cc1nc(-c2ccccc2C(C)C)nc2c1n(C)c(=N)n2Cc1ccc(-c2nc(C(F)(F)F)cn2C)cc1 5.00 to 6.60

What do you have for Cn1cc(C(F)(F)F)nc1-c1ccc(Cn2c(=N)n(C)c3cnc(-c4c(C5CC5)ncnc4C(F)(F)F)nc32)cc1 ? ≤ 5.00

Please answer likewise for Cn1cc(C(F)(F)F)nc1-c1ccc(Cn2c(=N)n(C)c3cnc(-c4ccccc4[C@H](O)C(F)(F)F)nc32)cc1 (single isomer, unassigned) ≤ 5.00

// same read-out, input: Cn1cc(C(F)(F)F)nc1-c1ccc(Cn2c(=N)n(CC(F)(F)F)c3cnc(-c4c(C(F)(F)F)cnn4C)nc32)cc1 5.00 to 6.60

----------
Measured IC50 by item
- System: HCC1954
- test: Viability assay, BRCA1 WT cell line HCC1954
- Assay type: cell-based
- assay-context: Homo sapiens, HCC1954, viability, read-out: HCC1954 rel IC50

Worked cases, IC50 given:
| record-smiles | system | IC50 |
| --- | --- | --- |
| CC(C)c1ccccc1-c1ncc2c(n1)n(Cc1ccc(-c3nc(C(F)(F)F)cn3C)cc1O)c(=N)n2C | HCC1954 | ≥ 10 µM |
| CC(C)c1ccccc1-c1nc(C#N)c2c(n1)n(Cc1ccc(-c3nc(C(F)(F)F)cn3C)cc1)c(=N)n2C | HCC1954 | 0.25 to 10 µM |
| Cn1cc(C(F)(F)F)nc1-c1ccc(Cn2c(=N)n(C)c3cnc(-c4cccnc4OCC(C)(C)C)nc32)cc1 | HCC1954 | ≥ 10 µM |

Could you now consider this next compound?
Can you look up the measured IC50 of Cn1cc(C(F)(F)F)nc1-c1ccc(Cn2c(=N)n(C)c3cnc(-c4cccnc4C(F)(F)F)nc32)cc1 for me? ≥ 10 µM
